Recorded T/C, one value per entry.
Tested on: L1210 leukemia ip in BDF1 mice, survival T/C
Method Summary: NCI In Vivo Anticancer Drug Screen. Data for tumor model L1210 Leukemia (intraperitoneal) in B6D2F1 (BDF1) mice
Experimental Setup: endpoint: mean survival time; dose: 400.0 mg/kg/injection; schedule: Q01DX001 (ip); vehicle: saline; higher = longer survival
Toxic doses and inconclusive results are not listed.

# Compound, T/C
records = [
    ("Cc1ccc(-c2ccns2)cc1", "104 % of control"),
    ("O=C(c1ccccc1)C1C(=O)N(c2ccccc2)C(=O)N1c1ccccc1 (configuration not stated)", "96 % of control"),
    ("CCOC(=O)CCC(=O)OCC", "93 % of control"),
    ("O=C(CCCC(=O)N/N=C/c1ccc(Cl)c([N+](=O)[O-])c1)N/N=C\\c1ccc(Cl)c([N+](=O)[O-])c1", "98 % of control"),
    ("O=C(/C=C/c1ccc([N+](=O)[O-])cc1)Nc1cccc(S(=O)(=O)F)c1", "101 % of control"),
    ("COc1cc(C)c2c(OC)ccc(OC)c2n1", "103 % of control"),
    ("CC(C)Nc1nc(N)nc2nc(-c3ccc(Cl)cc3)c(-c3ccc(Cl)cc3)nc12", "107 % of control"),
    ("Cc1ccccc1C1=CCCCCC1", "107 % of control"),
    ("COC(=O)c1ccccc1NN=Nc1ccccc1Cl", "99 % of control"),
    ("CC(=O)OC(C(C)=O)c1ccccc1 (configuration not stated)", "101 % of control"),
    ("O=C(NCCCl)NC1OCC(O)C(O)C1O (configuration not stated)", "103 % of control"),
    ("NCCCC(=O)NC(Cc1cnc[nH]1)C(=O)O (configuration not stated)", "92 % of control"),
]

Source: PubChem BioAssay AID248
